- measurementProtocol: Toxicity liver stage against HepG2, at 10uM
- Format: cell-based
- Design: test concentration 10 uM, cell line HepG2-A16-CD81EGFP
- testParameters: human, HepG2-A16-CD81EGFP cells; read-out: INHIBITION
readoutLabel: cytotoxicity at 10 µM (%)

compound | valueUnits | observed
CCN1CC(COC(=O)c2ccccc2Cl)CC1=O (stereo not given) | % | -1.54
CSCCNc1ccc(C(=O)N(C)Cc2ccc3ccccc3n2)cn1 | % | 9.65
COc1ccc(C2SC(C)=Nc3c2c(=O)[nH]n3C2CCCC2)cc1O (stereo not given) | % | 9.98
Fc1ccc(F)c(CN2CCC(c3n[nH]c4ncccc34)CC2)c1 | % | -25.4
CC(CN1CCOC1=O)NC(=O)c1cccc2cc[nH]c12 (stereo not given) | % | 6.2
CNCCNc1nccc(-c2cn(C)nc2C)n1 | % | 2.35
O=C(CN1CCN(CC(O)C2CC2)CC1)NCc1ccc(F)cc1 (stereo not given) | % | -0.084
Cc1occc1CNC(=O)Nc1ccc2nc(N3CCOCC3)oc2c1 | % | 9.5
Cc1cc(CN(C)C2CCN(c3cccc(-c4cscn4)c3)CC2)on1 | % | -0.371
COc1cc(/C=C/c2ncc(C(=O)O)s2)cc(OC)c1 | % | -3.86
CC(C)N1CCC(c2cnc(-c3cncnc3)cn2)CC1 | % | 2.55
COc1ccc2c(c1)CCCN(C(C)C(=O)NC(N)=O)C2 (stereo not given) | % | 8.66
CS(=O)(=O)c1ccc(OCCNCc2cccc(F)c2)cc1 | % | -9.06
Cc1cccc(N2CCc3ncnc(C4CC4)c3CC2)n1 | % | -148
CN(Cc1ccc2nsnc2c1)CC1(O)CCNC1 (stereo not given) | % | -11.7
Cc1cnn(C2(C(=O)O)CCN(c3ccncc3F)CC2)c1 | % | -1.94
CC(=O)N1CCC2(C1)C(=O)N(CC1CC1)c1ccccc12 (stereo not given) | % | 2.26
C=C(C)CN(CC)S(=O)(=O)c1ccccc1C#N | % | -17.1
Cc1ccc(C2CCCN(S(C)(=O)=O)C2)nc1 (stereo not given) | % | 2.32
COCCCN1CCN([C@@H]2c3ccccc3C3(CCNCC3)[C@H]2O)CC1 | % | -4.86
CN1CCN(C)c2cc(NC(=O)c3cc[nH]n3)ccc2C1 | % | -10.9
O=C(CNC(=O)Nc1cccc(-c2nccs2)c1)NCCO | % | -2.77
CCc1cnc(CN(C)C2CCN(CCCNS(C)(=O)=O)C2)o1 (stereo not given) | % | -3.4
CCSCc1cccc(NC(=O)N(C)Cc2ncnn2C)c1 | % | -0.477
COCCN1CCc2ccccc2NCCC1=O | % | -2.51
